molecular target: Adenosine receptor A1 (Bos taurus, UniProt P28190); test: Displacement of [3H]DPCPX from Adenosine A1 receptor of bovine cortical membranes with 1 mM GTP
Sequence (P28190 whole entry): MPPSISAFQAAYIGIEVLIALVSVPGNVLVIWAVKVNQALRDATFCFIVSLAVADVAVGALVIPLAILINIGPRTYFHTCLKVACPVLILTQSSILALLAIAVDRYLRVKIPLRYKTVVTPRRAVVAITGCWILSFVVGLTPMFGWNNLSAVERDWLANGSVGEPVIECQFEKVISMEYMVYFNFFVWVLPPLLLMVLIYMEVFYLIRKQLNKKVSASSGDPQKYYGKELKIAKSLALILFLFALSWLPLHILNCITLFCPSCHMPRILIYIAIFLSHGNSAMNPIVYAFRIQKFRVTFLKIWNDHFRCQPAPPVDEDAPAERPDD
pKi: −log10 of the molar value.
property.name: pKi

A = CCOC(=O)c1cnc2c(cnn2CC(Cl)c2ccccc2)c1NCCc1ccccc1 (configuration not stated)
B = CCOC(=O)c1cnc2c(cnn2CC(Cl)c2ccccc2)c1N1CCCC1 (configuration not stated)
### Prompt Hey, which is lower on measured pKi, A or B ? Field: selected label. Fill in the label of the entry you choose.
### Response B
(B: 7.05, A: 7.25)

###

biological target: Adenosine receptor A1 (Bos taurus); assay: Binding affinity to Adenosine A1 receptor in bovine cortical membranes by [3H]N6-cyclohexyl adenosine displacement.; format: cell membranes
property.name: Ki (µM)

CCOC(=O)c1cnc2c(cnn2CC(Cl)COc2ccccc2)c1NC1CC1 (stereo not drawn) :: 1.05
CCCCNc1c(C(=O)OCC)cnc2c1cnn2CC(Cl)COc1ccccc1 (stereo not drawn) :: 1.22
CCOC(=O)c1cnc2c(cnn2CC(Cl)c2ccccc2)c1NC1CCCCC1 (stereo not drawn) :: 1.49
